Biological target: ShHTL7 (Striga hermonthica, UniProt A0A0M3PNA2)
Sequence (A0A0M3PNA2 entry or part of it): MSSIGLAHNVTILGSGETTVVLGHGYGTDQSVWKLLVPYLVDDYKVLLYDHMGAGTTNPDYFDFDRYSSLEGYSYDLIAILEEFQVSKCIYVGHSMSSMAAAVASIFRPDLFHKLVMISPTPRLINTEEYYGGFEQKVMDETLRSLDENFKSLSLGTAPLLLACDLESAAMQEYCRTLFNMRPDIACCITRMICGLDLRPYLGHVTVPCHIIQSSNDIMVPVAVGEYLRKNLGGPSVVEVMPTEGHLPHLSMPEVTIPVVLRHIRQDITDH
Settings: read-out: Kd of ShHTL7 and GR24
pKd: −log10 of the molar value.

>  <compound>
CC1=C[C@H](O/C=C2/C(=O)O[C@@H]3c4ccccc4C[C@H]23)OC1=O [GR24]

>  <assayed-target>
ShHTL7 (Striga hermonthica, UniProt A0A0M3PNA2)

>  <pKd>
6.36

$$$$

====

Below are molecules with their IC50 as measured on ShHTL7 (Striga hermonthica, UniProt A0A0M3PNA2).
property: IC50 (µM)

>  <molecule>
CC(C)(C)CC(C)(C)c1ccc(OCCO)cc1 [4-ter-octylphenol Monoethoxylate]

>  <experimental-value>
9.2

$$$$
>  <molecule>
CC(C)(C)CC(C)(C)c1ccc(OCCOCCO)cc1 [4-ter-octylphenol diethoxylate]

>  <experimental-value>
7.5

$$$$
>  <molecule>
CC(C)(C)CC(C)(C)c1ccc(OCC(=O)O)cc1

>  <experimental-value>
1.5

$$$$

The origin of these recorded values is patent US11324216B2.
